The reported measurements were obtained from ChEMBL document CHEMBL4354847.

biological target: T-type calcium channel alpha 1G subunit (Mus musculus, UniProt Q27YN9); assay: Antagonist activity at mouse Cav3.1 expressed in HEK293T cells assessed as inhibition of current amplitude at holding potential of -100 mV by whole cell electrophysiological method
Sequence (Q27YN9 whole entry): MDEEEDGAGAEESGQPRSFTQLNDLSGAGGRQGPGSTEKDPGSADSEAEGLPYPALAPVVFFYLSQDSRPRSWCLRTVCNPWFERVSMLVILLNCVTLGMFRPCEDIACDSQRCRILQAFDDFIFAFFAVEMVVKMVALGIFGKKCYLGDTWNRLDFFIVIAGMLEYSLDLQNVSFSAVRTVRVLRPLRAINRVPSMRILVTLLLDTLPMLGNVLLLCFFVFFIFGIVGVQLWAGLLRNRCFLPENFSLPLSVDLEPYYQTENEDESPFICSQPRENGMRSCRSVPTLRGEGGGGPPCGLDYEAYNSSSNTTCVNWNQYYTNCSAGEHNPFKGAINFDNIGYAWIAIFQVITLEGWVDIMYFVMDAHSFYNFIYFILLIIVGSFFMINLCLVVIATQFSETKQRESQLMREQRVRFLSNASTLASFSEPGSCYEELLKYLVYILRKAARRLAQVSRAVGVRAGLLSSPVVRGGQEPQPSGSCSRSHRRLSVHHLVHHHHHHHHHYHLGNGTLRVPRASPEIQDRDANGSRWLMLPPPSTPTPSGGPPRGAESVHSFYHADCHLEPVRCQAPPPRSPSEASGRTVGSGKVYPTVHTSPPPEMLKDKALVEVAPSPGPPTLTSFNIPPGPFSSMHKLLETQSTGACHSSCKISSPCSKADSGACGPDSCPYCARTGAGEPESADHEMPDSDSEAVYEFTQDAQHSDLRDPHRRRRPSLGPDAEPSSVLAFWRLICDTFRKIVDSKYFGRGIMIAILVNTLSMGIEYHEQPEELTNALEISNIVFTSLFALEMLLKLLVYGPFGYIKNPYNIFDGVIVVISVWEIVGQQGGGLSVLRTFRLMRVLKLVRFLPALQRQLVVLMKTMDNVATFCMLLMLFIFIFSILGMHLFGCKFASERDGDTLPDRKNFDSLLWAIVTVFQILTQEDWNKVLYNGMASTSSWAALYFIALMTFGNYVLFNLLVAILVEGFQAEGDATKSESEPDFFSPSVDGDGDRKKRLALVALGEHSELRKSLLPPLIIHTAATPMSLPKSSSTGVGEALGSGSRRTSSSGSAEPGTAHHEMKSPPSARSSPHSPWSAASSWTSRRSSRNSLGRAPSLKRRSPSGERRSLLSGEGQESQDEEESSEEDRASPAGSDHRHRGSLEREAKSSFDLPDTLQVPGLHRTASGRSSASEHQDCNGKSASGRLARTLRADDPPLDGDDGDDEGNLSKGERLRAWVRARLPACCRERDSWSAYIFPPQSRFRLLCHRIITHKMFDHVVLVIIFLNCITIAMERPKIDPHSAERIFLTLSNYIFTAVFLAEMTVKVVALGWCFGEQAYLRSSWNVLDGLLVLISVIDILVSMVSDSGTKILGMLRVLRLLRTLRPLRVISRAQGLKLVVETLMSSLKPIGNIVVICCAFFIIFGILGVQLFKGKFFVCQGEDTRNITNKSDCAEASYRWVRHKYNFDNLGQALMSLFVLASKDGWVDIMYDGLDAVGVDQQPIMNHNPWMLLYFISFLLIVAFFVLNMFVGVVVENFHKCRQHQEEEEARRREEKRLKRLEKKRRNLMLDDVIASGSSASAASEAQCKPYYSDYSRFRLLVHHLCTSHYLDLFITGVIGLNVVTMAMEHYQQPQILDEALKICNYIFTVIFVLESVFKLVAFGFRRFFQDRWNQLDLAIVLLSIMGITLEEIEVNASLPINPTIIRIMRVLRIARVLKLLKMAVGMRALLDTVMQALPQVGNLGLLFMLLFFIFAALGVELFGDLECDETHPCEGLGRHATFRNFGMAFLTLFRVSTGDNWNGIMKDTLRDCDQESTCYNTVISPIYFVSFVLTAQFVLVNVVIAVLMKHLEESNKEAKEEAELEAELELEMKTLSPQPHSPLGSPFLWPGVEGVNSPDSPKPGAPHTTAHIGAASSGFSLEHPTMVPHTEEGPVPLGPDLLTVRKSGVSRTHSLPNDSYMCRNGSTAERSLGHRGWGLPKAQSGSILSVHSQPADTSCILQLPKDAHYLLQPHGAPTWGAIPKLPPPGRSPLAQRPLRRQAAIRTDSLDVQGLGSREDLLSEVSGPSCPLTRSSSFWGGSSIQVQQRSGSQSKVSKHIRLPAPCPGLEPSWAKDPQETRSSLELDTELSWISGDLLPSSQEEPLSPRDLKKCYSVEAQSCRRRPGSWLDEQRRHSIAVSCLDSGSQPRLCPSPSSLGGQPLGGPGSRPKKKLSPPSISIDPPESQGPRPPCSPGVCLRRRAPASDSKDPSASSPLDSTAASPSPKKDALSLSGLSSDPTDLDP
Experimental Endpoint: IC50 (nM)
Numbers only; they are read as nM.

Recorded IC50, per entry:
Exam item: Request the reported IC50 associated with C=C(C)[C@H]1CC[C@@](C)(O)[C@@H](C2=C(O)C(CC=C(C)C)(CC=C(C)C)C(=O)C(C(=O)C(C)CC)=C2O)C1 (stereo partly drawn)
Marked response: 190

Exam item: Subsequent entry: "C=C(C)[C@H]1CC[C@@](C)(O)[C@@H](C2=C(O)C(CC=C(C)C)(CC=C(C)C)C(=O)C(C(=O)c3ccccc3)=C2O)C1"
Marked response: 2300

Alright, here's another molecule for you.
Exam item: Name the recorded IC50 for "C=C(C)[C@H]1CC[C@@](C)(O)[C@@H](C2=C(O)C(CC=C(C)C)(CC=C(C)C)C(=O)C(C(=O)C(C)C)=C2O)C1" .
Marked response: 3500
